- System: Candida albicans
- PROTOCOL NOTES: Antifungal activity against Candida albicans NCIM 3471 by agar plate assay
- Format: functional
// returns Not fulfilled unless MIC is strictly below 40 µg/mL, in which case Fulfilled

                    structure_smiles_string    group_label
0      CCN1CCC(n2cc(-c3noc(=O)[nH]3)nn2)CC1      Fulfilled
1  CC(C)(C)OC(=O)N1CCC(n2cc(/C(N)=N/O)nn2)CC1      Fulfilled
2  Cc1ccc(S(=O)(=O)N2CCC(n3cc(-c4noc(=O)[nH]4)nn3)CC2)cc1      Fulfilled
3  O=C(c1ccccc1)N1CCC(n2cc(-c3noc(=O)[nH]3)nn2)CC1  Not fulfilled
